Origin of values: patent US20240083857A1

Target: human SOS1 (nucleotide exchange of K-Ras^G12C) (Homo sapiens, UniProt Q07889)
Assay Text: Biochemical assay 2: K-Ras^G12C activation assay by hSOS1 at high GTP concentration (HTRF)
Study Conditions: high GTP; read-out: Assay 2 (KRAS-Activation by SOS high GTP) activity expressed as IC50
pIC50: −log10 of the molar value.
If the reported pIC50 equals or exceeds 6, assign condition met. If not, assign condition not met.

Some solved cases for reference:
COc1cc2nc(C)nc(N[C@@H](C)c3ccc(-c4ccc5[nH]ccc5c4)s3)c2cc1OC (racemic) [Example 152]; condition not met
COc1cc2nc(C)nc(N[C@H](C)c3cccc(CN)c3)c2cc1OC [Example 260]; condition not met
COc1cc2nc(C)nc(NC(C)c3cc(-c4ccccc4CN)cs3)c2cc1OC (centres unmarked) [Example 270]; condition met

In plain terms: is recorded pIC50 at least 6 for COc1cc2nc(C)nc(N[C@H](C)c3cccc(-c4ccccc4)c3)c2cc1OC [Example 193] ?
condition met

In plain terms: is recorded pIC50 at least 6 for COc1cc2nc(C)nc(N[C@H](C)c3cccc(-c4cncc(S(C)(=O)=O)c4)c3)c2cc1OC [Example 56] ?
condition not met

In plain terms: is recorded pIC50 at least 6 for C=Cc1ccccc1-c1ccc(C(C)Nc2nc(C)nc3cc(OC)c(OC)cc23)s1 (centres unmarked) [Example 248] ?
condition not met

In plain terms: is recorded pIC50 at least 6 for COc1cc2nc(C)nc(NC(C)c3ccc(-c4ccc(F)cc4CNC(=O)c4cnc[nH]4)s3)c2cc1OC (centres unmarked) [Example 294] ?
condition not met

----------
Target: human SOS1 (nucleotide exchange of K-Ras^G12C) (Homo sapiens)
Assay Text: Biochemical assay 2: K-Ras^G12C activation assay by hSOS1 at high GTP concentration (HTRF)
Study Conditions: high GTP; read-out: Assay 2 (KRAS-Activation by SOS high GTP) activity expressed as IC50
Recorded Metric: log10 of IC50 (log10 of the value in nM)
Friendly reminder: values = log10 of IC50, unit nM.

Please tell me the measured log10 of IC50 for COc1cc2nc(C)nc(NC(C)c3ccc(-c4cccc5[nH]ncc45)s3)c2cc1OC (centres unmarked) ; system: human SOS1 (nucleotide exchange of K-Ras^G12C) (Homo sapiens).
2.94

Please tell me the measured log10 of IC50 for COc1cc2nc(C)nc(N[C@H](C)c3cccc(-c4cccc(C(=O)N(C)C)c4)c3)c2cc1OC ; system: human SOS1 (nucleotide exchange of K-Ras^G12C) (Homo sapiens).
3.18

Please tell me the measured log10 of IC50 for COc1cc2nc(C)nc(NC(C)c3cccc(Oc4ccccc4)c3)c2cc1OC (centres unmarked) [Example 215] ; system: human SOS1 (nucleotide exchange of K-Ras^G12C) (Homo sapiens).
3.06

----------
Target: K-Ras^G12C : hSOS1 interaction (Homo sapiens)
Assay Text: Biochemical assay 1: K-Ras^G12C interaction assay with hSOS1 (HTRF)
Assay type: binding
Study Conditions: read-out: Assay 1 (KRAS-SOS Interaction) activity expressed as IC50
Recorded Metric: IC50 (nM)
Kindly answer with a numeric value in nM, unit omitted.

The examples below pair each entry with its known result.
COc1cc2nc(C)nc(N[C@H](C)c3cccc(C#N)c3)c2cc1OC; 493
COc1cccc(-c2cccc([C@@H](C)Nc3nc(C)nc4cc(OC)c(OC)cc34)c2)c1; 2180
COc1cc2nc(C)nc(N[C@@H](C)c3ccc(-c4ccccc4)s3)c2cc1OC (stereo in doubt); 6820
COc1cc2nc(C)nc(NC(C)c3ccc(-c4ccc(F)cc4CNCc4nccn4C)s3)c2cc1OC (centres unmarked); 417
CNCc1ccccc1-c1ccc(C(C)Nc2nc(C)nc3cc(OC)c(OC)cc23)s1 (centres unmarked); 50

Output measured IC50 for this item: COc1cc2nc(C)nc(N[C@H](C)c3cccc(-c4cnc5[nH]ccc5c4)c3)c2cc1OC
585

Output measured IC50 for this item: COc1cc2nc(C)nc(NC(C)c3ccc(-c4ccccc4OCCN4CCCC4)s3)c2cc1OC (centres unmarked)
228

Output measured IC50 for this item: COc1cc2nc(C)nc(NC(C)c3ccc(-c4ccccc4CN4CCC4)s3)c2cc1OC (centres unmarked)
76
